# assay_remarks: osmotic lysis modulators in infected erythrocytes, primary screen, PSAC antagonist project, cell-based, P. falciparum Indochina, OD700, 3 h (AID 1156)
# measurement_setup: higher = more signal, called active from +8 up or from −8 down
Activity calls are given as the source filed them.
endpoint: z-score

>>> result("C=CCOC(=O)[C@H]1[C@@H]2C(=O)O[C@@H](c3ccccc3)[C@@H](c3ccccc3)N2[C@@H](c2ccc(OCCOC(=O)[C@H]3C[C@H]4C(=O)N5CCC[C@H]5C(=O)N4[C@H]3c3cccc(OCCO)c3)cc2)[C@]12C(=O)Nc1ccc(I)cc12")
"-2.53 (inactive)"
>>> result("C[C@@H](c1ccccc1)N1C(=O)[C@H]2[C@H]3[C@H](O)[C@H](O)CC(=NOC[C@@H](O)COCc4ccco4)[C@@H]3CC[C@H]2C1=O")
"-0.478 (inactive)"
>>> result("COC(=O)[C@]1(CO)N=C(c2ccc(OCCCO)cc2)O[C@@H]1c1ccccc1N=[N+]=[N-]")
"1.49 (inactive)"
>>> result("COC(=O)[C@H](C)NC(=O)CCC1CC(OC(=O)NCCc2ccc(F)cc2)CC2(CCCC(COC(=O)NCC(c3ccccc3)c3ccccc3)O2)O1 (some centres undefined)")
"-0.286 (inactive)"
>>> result("CCOC(=O)[C@H](Cc1ccccc1)NC(=O)CCC1CC(OC(=O)NCc2ccc3c(c2)OCO3)CC2(CCCC(COC(=O)NCc3ccccc3)O2)O1 (some centres undefined)")
"-1.37 (inactive)"
>>> result("COc1ccc(O[C@H]2C=C[C@@H](c3ccccc3)O[C@@H]2COC(=O)CCC(C)=NO[C@@H](C)c2cc(-c3c(C)cc(C)cc3C)no2)cc1")
"0.488 (inactive)"
>>> result("CC(C)=CCCC(C)=CCON=C1C[C@@H](O)[C@@H](O)[C@@H]2[C@@H]3C(=O)N(C[C@@H]4CCCO4)C(=O)[C@@H]3CC[C@@H]12")
"0.369 (inactive)"
>>> result("CC(C)CN1CCc2nc(-c3ccccc3)c3c(c2CC1)CO[C@@H](C)C3")
"0.923 (inactive)"
>>> result("C=CC[C@@H]1C=C[C@H](ON=Cc2ccc(C(=O)N3[C@H](c4ccc(C)cc4)[C@@H](C)CC[C@H]3C(=O)OC)cc2)[C@@H](CO)O1")
"-0.273 (inactive)"
>>> result("CC(C)[Si]1(C(C)C)O[C@@H](c2ccccc2)c2cc(C3CC3)nc(-c3ccccc3)c21")
"-0.0854 (inactive)"
>>> result("COCCNC(=O)OCC1CCCC2(CC(OC(=O)NCCc3ccc(F)cc3)CC(CCC(=O)N[C@@H](C)C(=O)OC)O2)O1 (some centres undefined)")
"0.958 (inactive)"
>>> result("CC(C)C[C@@H]1NC(=O)[C@H]2C[C@@H](C(=O)O)[C@@H](c3ccc(O)cc3)N2C1=O")
"-1.66 (inactive)"
>>> result("NCCCCCNC(=O)[C@@H]1C[C@@H]2C(=O)N3CCC[C@H]3C(=O)N2[C@@H]1c1cccc(OCCO)c1")
"0.744 (inactive)"
>>> result("CC(=O)OC[C@H]1O[C@H](CCON=C(C)CCN2CCc3nc(-c4ccccc4)c(-c4ccccc4)cc3C2)C=C[C@@H]1OC(C)=O")
"0.676 (inactive)"
